System: PC9 GR4 cells
measurementDescription: Cell viability dose-response assay (CellTiter-Glo), IC50 calculation
Format: cell-based, human
reportedConditions: Homo sapiens, PC9/GR4, read-out: Calculated IC50
property: IC50 (µM)
Give the value in µM but do not write µM after it.

Data request: Bench note: what IC50 did O=C(Nc1ccc(OC(F)(F)Cl)cc1)c1cnc(N2CC[C@@H](O)C2)c(-c2ccn[nH]2)c1 show?
Data returned: 7.5
